- Tested on: 653999-131-R-J2-PDC complex spheroid viability
- test_name: Anticancer human tumor 653999-131-R-J2-PDC patient-derived lung adenocarcinoma cell line growth inhibition
- stated_conditions: second compound 3.16 µM; first compound 0.003 µM; stronger effect = lower value
- Description: Multicellular complex tumor spheroid response to LSD1 Inhibitor Iadademstat in combination with a variety of drugs and investigational agents in selected tumor cell lines The current study was undertaken to assess response to LSD1 inhibitors in combination with standard-of-care drugs and investigational agents in solid tumor complex spheroid models as well as in the K-562 leukemia. […] Compounds. […] If the clinical Cmax for an agent had not been determined, the highest concentration tested was 10 microM. […]
We label by threshold. Values of viability, T/C strictly beneath 90% are 1.0. Values of 90% and up are 0.0.

Prompt: Quick check: does Nc1ncn(C2CC(O)C(CO)S2)c(=O)n1 (stereo unspecified) + NC1CC1c1ccc(-c2cccc(O)c2)cc1 have viability, T/C under 90%?
Completion: 0.0

Prompt: Quick check: does Nc1ccn(C2OC(CO)C(O)C2(F)F)c(=O)n1 (stereo unspecified) + NC1CC1c1ccc(-c2cccc(O)c2)cc1 have viability, T/C under 90%?
Completion: 1.0

Prompt: Quick check: does CCc1c2c(nc3ccc(O)cc13)-c1cc3c(c(=O)n1C2)COC(=O)[C@]3(O)CC + NC1CCC(NC2CC2c2ccccc2)CC1 have viability, T/C under 90%?
Completion: 1.0

Prompt: Quick check: does Nc1ccn(C2OC(CO)C(O)C2(F)F)c(=O)n1 (stereo unspecified) + NC1CCC(NC2CC2c2ccccc2)CC1 have viability, T/C under 90%?
Completion: 1.0

Prompt: Quick check: does CCc1c2c(nc3ccc(O)cc13)-c1cc3c(c(=O)n1C2)COC(=O)[C@]3(O)CC + NC1CC1c1ccc(-c2cccc(O)c2)cc1 have viability, T/C under 90%?
Completion: 1.0

###

- Test system: 653999-131-R-J2-PDC complex spheroid viability
- test_name: Anticancer human tumor 653999-131-R-J2-PDC cell line growth inhibition;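 also: spheroids exposed to agents for seven days before readout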
- stated_conditions: second compound 0.1 µM; first compound 0.00949 µM; stronger effect = lower value
property: viability, T/C (%)
Record the value in %, omitting the unit from your answer.

Measured viability, T/C of COc1cc(C2c3cc4c(cc3C(OC3OC5COC(C)OC5C(O)C3O)C3COC(=O)C23)OCO4)cc(OC)c1O (centres undefined) + NC1CC1c1ccc(-c2cccc(O)c2)cc1 : 83.5

Measured viability, T/C of Nc1ccccc1NC(=O)c1ccc(CNC(=O)OCc2cccnc2)cc1 + NC1CCC(NC2CC2c2ccccc2)CC1 : 68.4

Measured viability, T/C of COc1cc(C2c3cc4c(cc3C(OC3OC5COC(C)OC5C(O)C3O)C3COC(=O)C23)OCO4)cc(OC)c1O (centres undefined) + NC1CCC(NC2CC2c2ccccc2)CC1 : 70.8

Measured viability, T/C of CCc1c2c(nc3ccc(O)cc13)-c1cc3c(c(=O)n1C2)COC(=O)[C@]3(O)CC + NC1CCC(NC2CC2c2ccccc2)CC1 : 11.8

###

- Test system: 653999-131-R-J2-PDC complex spheroid viability
- test_name: Anticancer human tumor 653999-131-R-J2-PDC cell line growth inhibition;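 also: spheroids exposed to agents for seven days before readout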
- stated_conditions: second compound 1 µM; first compound 0.316 µM; stronger effect = lower value
property: viability, T/C (%)
Record the value in %, omitting the unit from your answer.

Measured viability, T/C of O=C(C=Cn1cnc(-c2cc(C(F)(F)F)cc(C(F)(F)F)c2)n1)NNc1cnccn1 + NC1CC1c1ccc(-c2cccc(O)c2)cc1 : 27.2

Measured viability, T/C of O=C(c1cc(Cc2n[nH]c(=O)c3ccccc23)ccc1F)N1CCN(C(=O)C2CC2)CC1 + NC1CCC(NC2CC2c2ccccc2)CC1 : 109

Measured viability, T/C of CC1COCCN1c1cc(-c2ccnn2C)c2ccnc(-c3ccn[nH]3)c2n1 (configuration not stated) + NC1CCC(NC2CC2c2ccccc2)CC1 : 33.9

Measured viability, T/C of CC1COCCN1c1cc(C2(S(C)(=N)=O)CC2)nc(-c2ccnc3[nH]ccc23)n1 (configuration not stated) + NC1CCC(NC2CC2c2ccccc2)CC1 : 67.4

Measured viability, T/C of CC1COCCN1c1cc(C2(S(C)(=N)=O)CC2)nc(-c2ccnc3[nH]ccc23)n1 (configuration not stated) + NC1CC1c1ccc(-c2cccc(O)c2)cc1 : 83.7

Measured viability, T/C of O=C(c1cc(Cc2n[nH]c(=O)c3ccccc23)ccc1F)N1CCN(C(=O)C2CC2)CC1 + NC1CC1c1ccc(-c2cccc(O)c2)cc1 : 90.8

Measured viability, T/C of CC1COCCN1c1cc(-c2ccnn2C)c2ccnc(-c3ccn[nH]3)c2n1 (configuration not stated) + NC1CC1c1ccc(-c2cccc(O)c2)cc1 : 31

###

- System: 653999-131-R-J2-PDC complex spheroid viability
- test_name: Anticancer human tumor 653999-131-R-J2-PDC cell line growth inhibition;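 also: spheroids exposed to agents for seven days before readout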
- stated_conditions: second compound 3.16 µM; first compound 0.00316 µM; stronger effect = lower value
For each record, write down the corresponding viability, T/C.
Record the value in %, omitting the unit from your answer.

Measured viability, T/C of COc1cc(Nc2ncc3c(n2)-c2ccc(Cl)cc2C(c2c(F)cccc2OC)=NC3)ccc1C(=O)O + NC1CCC(NC2CC2c2ccccc2)CC1 : 92.2

Measured viability, T/C of Cn1ncnc1C1c2n[nH]c(=O)c3cc(F)cc(c23)NC1c1ccc(F)cc1 (centres undefined) + NC1CCC(NC2CC2c2ccccc2)CC1 : 91.1

Measured viability, T/C of CC1COCCN1c1cc(-c2ccnn2C)c2ccnc(-c3ccn[nH]3)c2n1 (centres undefined) + NC1CCC(NC2CC2c2ccccc2)CC1 : 92.2

Measured viability, T/C of Cn1ncnc1C1c2n[nH]c(=O)c3cc(F)cc(c23)NC1c1ccc(F)cc1 (centres undefined) + NC1CC1c1ccc(-c2cccc(O)c2)cc1 : 90.3

###

- System: 653999-131-R-J2-PDC complex spheroid viability
- test_name: Anticancer human tumor 653999-131-R-J2-PDC cell line growth inhibition;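 also: spheroids exposed to agents for seven days before readout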
- stated_conditions: second compound 10 µM; first compound 0.00316 µM; stronger effect = lower value
- From the text: Multicellular complex tumor spheroid response to LSD1 Inhibitor Iadademstat in combination with a variety of drugs and investigational agents in selected tumor cell lines The current study was undertaken to assess response to LSD1 inhibitors in combination with standard-of-care drugs and investigational agents in solid tumor complex spheroid models as well as in the K-562 leukemia. […] Compounds. […] If the clinical Cmax for an agent had not been determined, the highest concentration tested was 10 microM. […]
Binned viability, T/C; ranges: zone 1: < 60%; zone 2: ≥ 60% and < 90%; zone 3: ≥ 90%

Prompt: Tag the class for COc1cc(Nc2ncc3c(n2)-c2ccc(Cl)cc2C(c2c(F)cccc2OC)=NC3)ccc1C(=O)O + NC1CCC(NC2CC2c2ccccc2)CC1
Completion: zone 3

Prompt: Tag the class for O=C(C=Cn1cnc(-c2cc(C(F)(F)F)cc(C(F)(F)F)c2)n1)NNc1cnccn1 + NC1CC1c1ccc(-c2cccc(O)c2)cc1
Completion: zone 1

Prompt: Tag the class for Cn1ncnc1C1c2n[nH]c(=O)c3cc(F)cc(c23)NC1c1ccc(F)cc1 (stereo not drawn) + NC1CC1c1ccc(-c2cccc(O)c2)cc1
Completion: zone 3

Prompt: Tag the class for CC(C)CC(NC(=O)C(Cc1ccccc1)NC(=O)c1cnccn1)B(O)O (stereo not drawn) + NC1CCC(NC2CC2c2ccccc2)CC1
Completion: zone 1

Prompt: Tag the class for CC1COCCN1c1cc(-c2ccnn2C)c2ccnc(-c3ccn[nH]3)c2n1 (stereo not drawn) + NC1CC1c1ccc(-c2cccc(O)c2)cc1
Completion: zone 1

Prompt: Tag the class for CC(C)CC(NC(=O)CNC(=O)c1cc(Cl)ccc1Cl)B1OC(=O)CC(CC(=O)O)(C(=O)O)O1 (stereo not drawn) + NC1CCC(NC2CC2c2ccccc2)CC1
Completion: zone 3

Prompt: Tag the class for CC(C)CC(NC(=O)CNC(=O)c1cc(Cl)ccc1Cl)B1OC(=O)CC(CC(=O)O)(C(=O)O)O1 (stereo not drawn) + NC1CC1c1ccc(-c2cccc(O)c2)cc1
Completion: zone 3

Prompt: Tag the class for Nc1ncn(C2CC(O)C(CO)O2)c(=O)n1 (stereo not drawn) + NC1CCC(NC2CC2c2ccccc2)CC1
Completion: zone 3

Prompt: Tag the class for CC[C@@]1(O)C(=O)OCc2c1cc1n(c2=O)Cc2cc3c(CN(C)C)c(O)ccc3nc2-1 + NC1CC1c1ccc(-c2cccc(O)c2)cc1
Completion: zone 2

Prompt: Tag the class for CC[C@@]1(O)C(=O)OCc2c1cc1n(c2=O)Cc2cc3c(CN(C)C)c(O)ccc3nc2-1 + NC1CCC(NC2CC2c2ccccc2)CC1
Completion: zone 2

Prompt: Tag the class for CC1COCCN1c1cc(-c2ccnn2C)c2ccnc(-c3ccn[nH]3)c2n1 (stereo not drawn) + NC1CCC(NC2CC2c2ccccc2)CC1
Completion: zone 2

Entry source: PubChem BioAssay AID1918939
